Let's look at some pIC50 data for MAPKAPK5 (Homo sapiens) that I collected from the literature.
pIC50: −log10 of the molar value.

The cases that follow already have their pIC50 on record.
>>> result("O=C(NCc1ccc(O)cc1)c1ccc(Nc2ncc(-c3cn[nH]c3)n3ccnc23)cc1")
"6.00 to 6.30"
>>> result("CCOC(=O)CN(Cc1ccccc1)C(=O)c1ccc(Nc2ncc(-c3cn[nH]c3)n3ncnc23)cc1")
"< 6.00"
>>> result("CN1CCN(c2ccc(Nc3ncc(-c4ccc(C(N)=O)cc4)n4ccnc34)cc2Cl)CC1")
"6.30 to 7.00"

Which measured pIC50 value corresponds to O=C(NCCO)c1ccc(Nc2ncc(-c3cn[nH]c3)n3ncnc23)cc1 ? 6.00 to 6.30

Which measured pIC50 value corresponds to NC(=O)c1c(F)cc(-c2cnc(Nc3ccc(OCCN4CCOCC4)cc3)c3nccn23)cc1F ? 6.00 to 6.30

Which measured pIC50 value corresponds to Nc1ccc(Nc2ncc(-c3cn[nH]c3)n3ccnc23)cn1 ? 6.00 to 6.30

Which measured pIC50 value corresponds to NC(=O)c1cc(-c2cnc(Nc3ccc(N4CCN(CC(F)(F)F)CC4)cc3)c3ncnn23)cs1 ? 6.30 to 7.00

Which measured pIC50 value corresponds to NC(=O)c1ccc(-c2cnc(Nc3ccc(N4CCN(CCO)CC4)cc3)c3nccn23)cc1 ? 6.00 to 6.30

Which measured pIC50 value corresponds to NC(=O)c1cc(-c2cnc(NC3CCN(Cc4ccccc4)CC3)c3ncnn23)co1 ? < 6.00

Which measured pIC50 value corresponds to CC(C)N1CCN(c2ccc(Nc3ncc(-c4cn[nH]c4)n4ncnc34)cn2)CC1 ? < 6.00

Which measured pIC50 value corresponds to c1nc2c(Nc3ccc(N4CCN(CC5CC5)CC4)nc3)ncc(-c3cn[nH]c3)n2n1 ? < 6.00
